Source listed as PubChem BioAssay AID1996.

# RUN CONDITIONS: buffer; pH 7.4; 200.0 µM
QUANTITY KIND: solubility kinetic (µg/mL)
The answer is to be given in µg/mL; state only the numeric part.

Please review the following examples before continuing.
INSERT INTO results (compound, quantity_kind, unit_annotation, endpoint_result) VALUES
  ('Cc1ccc(CNC(=O)c2ccc(Cl)c(S(N)(=O)=O)c2)n1C', 'solubility kinetic', 'µg/mL', 41.5),
  ('COC(=O)c1cc(Cl)nc2ccccc12', 'solubility kinetic', 'µg/mL', 7.9),
  ('N#Cc1c(-c2cccs2)cc(-c2cccs2)[nH]c1=O', 'solubility kinetic', 'µg/mL', 0.7);

I'd like to know its solubility kinetic. The compound in question is CC(NC(=O)c1cc2cc(Cl)ccc2oc1=N)c1ccccc1 (configuration not stated)
4.2

Next compound: "O=C(CCCCl)Nc1nc(-c2ccc3c(c2)OCCO3)cs1"
1.1

Next compound: CS(=O)(=O)c1ccc2nc(NC(=O)C3CCCO3)sc2c1 (configuration not stated)
43.8

Next compound: "O=C1COc2ccc(C(=O)COc3ccc([N+](=O)[O-])cc3)cc2N1"
0.8
